Here, each record is paired with measured growth data.
- System: HS 578T breast
- measurement notes: NCI-60 one-dose screen, 48 h (100 = growth as untreated, 0 = no growth, -100 = all killed)
- measurement context: 10 µM unless noted
- Method: Growth inhibition of the HS 578T human tumor cell line is measured as a screen for anti-cancer activity. Cells are grown in 96 well plates and exposed to the test compound for 48 hours. Compounds are tested at a single concentration, which is 10^-5 M for most compounds. The reported endpoint is percent growth (GI% or GIPRCNT), where numbers from 0 - 100% represent growth inhibition, and numbers from -100% - 0 represent cell death. For example, a value of 40 represents 60% growth inhibition. […]
Compounds without any hit were thinned out: in the full panel of roughly 83,000, 20% have a hit.
Kindly answer with a numeric value in %, unit omitted.

Examples from the recorded data:
1. O=[N+]([O-])c1ccc2[nH]cc(-c3c4ccsc4cc4[nH]c5ccc([N+](=O)[O-])cc5c34)c2c1    26.6
2. Cc1[nH]c(-c2nc3ccccc3[nH]2)c(C)c1C(=O)NNc1ccc(Cl)cc1    92.7
3. C[C@@H](C[C@H](CCOCc1cccnc1)c1ccccc1)c1cc2ccccc2o1    85.1
4. Cc1nc(Nc2ccc(N)cc2)c2ccccc2n1    104
5. CCN(CC)CCOc1ccc(/C(=C(\C)c2ccc(OC)c(F)c2)c2ccc(Cl)cc2)cc1    70

Continue with the next compound.
Give growth for the following compound: CC1(C)C(=O)/C(=C\c2cccnc2)C[C@]2(C)[C@H]3CC=C4[C@@H]5C[C@@](C)(C(=O)O)CC[C@]5(C)CC[C@@]4(C)[C@]3(C)CC[C@@H]12
99.2

###

- Test system: NCI-H226 lung
- measurement notes: NCI-60 one-dose screen, 48 h (100 = growth as untreated, 0 = no growth, -100 = all killed)
- measurement context: 10 µM unless noted
The panel holds about 83,000 compounds, 20% with a hit somewhere; the sample as a whole holds those more often.
growth under 60% gets fulfilled, anything at or over 60% gets not fulfilled.

1) O=C(Oc1ccc([N+](=O)[O-])cc1)c1ccc(CBr)cc1    not fulfilled
2) COc1ccc(CN2C(=O)/C(=C\c3cc(OC)c(OC)c(OC)c3)c3ccccc32)cc1    fulfilled
3) CCN(CC)CC(O)CNc1c2ccc(Cl)cc2nc2ccc(OC)cc12 (stereo not given)    fulfilled

Record COc1ccc(C2CC(c3ccccc3)=NN2c2nc(C)c(C(C)=O)s2)cc1 (stereo not given) : is its growth strictly below 60%?
not fulfilled

###

- System: TK-10 renal
- measurement notes: NCI-60 one-dose screen, 48 h (100 = growth as untreated, 0 = no growth, -100 = all killed)
- measurement context: 10 µM unless noted
Compounds without any hit were thinned out: in the full panel of roughly 83,000, 20% have a hit.
Here, each record is paired with measured growth data.
Kindly answer with a numeric value in %, unit omitted.

1) CN(C)c1ccc(/C=C/c2c(F)cccc2F)cc1    109
2) CCOC(=O)Cc1csc2nc(-c3ccccc3)nn12    126
3) COc1ccc(-c2cc(-c3ccc(Nc4nc(Nc5ccccc5)nc(Nc5ccc(Cl)cc5)n4)cc3)nc(N)n2)cc1    98
4) Cc1nc(Nc2ccc(N)cc2)c2ccccc2n1    110
5) COc1cc(/C=C/C(=O)c2ccc(Nc3nc(Nc4ccccc4)nc(Nc4ccc(Cl)cc4)n3)cc2)cc(OC)c1OC    74.7
6) O=C(CCCCCCCn1cc(-c2cccnc2)nn1)Nc1ccccc1-c1ccccc1    84

Give growth for the following molecule: Cc1nc(Nc2ccc(NC(=S)Nc3ccccc3)cc2)nc2nc(SCc3ccccc3)[nH]c(=O)c12
199

Give growth for the following molecule: C=C(C)C1CCC(=C)C2CCC3(C)OC12/C=C(/COC(C)=O)CCC3O (stereo not given)
121

Give growth for the following molecule: Cn1ncc2c(Nc3ccc(Br)cc3)nc(Nc3ccc(Br)cc3)nc21
73.1

Give growth for the following molecule: COc1ccc(-c2nnc(SCC(=O)NC3=NN=C(c4ccccc4)CS3)o2)cc1
106

###

- Tested on: K-562 leukemia
- measurement notes: NCI-60 one-dose screen, 48 h
- measurement context: 10 µM unless noted
About 83,000 compounds went through this panel and 20% of them were active in at least one assay; those are over-represented in the sample as a whole. Active and inactive are the calls of the source. Rule for the calls: active = growth percent below 10; inactive = the rest.
Respond with a class label; see active, inactive

Below, 3 molecules whose answers are already recorded.
1. CC(/C=N/NC(=O)c1cc(-c2ccco2)[nH]n1)=C\c1ccccc1    inactive
2. CCOc1cc(N)ccc1C(=O)NCCCN(CC)CC    inactive
3. O=C1CSC(c2ccccc2Cl)N1c1nnc(Cn2cnnc2)o1 (centres undefined)    active

Name the outcome recorded for CC(C)CCC[C@@H](C)[C@H]1CCC2C3=CCn4c(=O)ccc(=O)n4C3CC[C@@]21C (some centres undefined) in the assay.
active

Name the outcome recorded for Cc1c2c(cn1Cc1ccccc1)CCc1cn(C)nc1-2 in the assay.
inactive

Name the outcome recorded for CC(C)OC(=O)OCOP(=O)(OCOC(=O)OC(C)C)C1CCCN(O)C1=O (centres undefined) in the assay.
inactive

Name the outcome recorded for C#C[C@]1(O)CC[C@H]2[C@@H]3CC=C4c5sc(N=C(N)N)nc5CC[C@]4(C)[C@H]3CC[C@@]21C in the assay.
active

Name the outcome recorded for C=CCO[C@H]1CO[C@H]2[C@@H]1OC[C@@H]2Oc1ccc(Nc2ccnc(Nc3ccc(O[C@H]4CO[C@H]5[C@@H]4OC[C@@H]5OCC=C)c(Cl)c3)n2)cc1Cl in the assay.
active

Name the outcome recorded for CN(CCCCCCCCNc1ccnc2ccccc12)Cc1ccc(-c2ccc(-c3ccc(C#N)cc3)s2)cc1 in the assay.
active

###

- Tested on: SF-295 CNS
- measurement notes: NCI-60 one-dose screen, 48 h
- measurement context: 10 µM unless noted
About 83,000 compounds went through this panel and 20% of them were active in at least one assay; those are over-represented in the sample as a whole. The source made the active and inactive calls. Rule for the calls: active = growth percent below 10; inactive = the rest.
Respond with a class label; see 1.0 = active, 0.0 = inactive

Below, 3 compounds whose answers are already recorded.
1) CN(CCCCCCCCNc1ccnc2ccccc12)Cc1ccc(-c2ccc(-c3ccc(C#N)cc3)s2)cc1    1.0
2) CCCc1cc(=O)oc2c3c(c4c(c12)OC(C)(C)C=C4)O[C@@H](C)[C@H](C)C3=O    0.0
3) CCOC(=O)C1=C(C)NC(SCc2nnc(-c3ccc(Cl)cc3)o2)=NC1c1ccc(Cl)cc1Cl (stereo not given)    0.0

Name the outcome recorded for CC(C)(O)c1cccc(F)c1 in the assay.
0.0

Name the outcome recorded for Cc1nc(Nc2cccc(NC(=O)Nc3ccc(Cl)cc3)c2)c2ccccc2n1 in the assay.
0.0

Name the outcome recorded for O=C(O)C1C[C@](O)(c2ccc(F)cc2)[C@@H](c2ccc(F)cc2)O1 (stereo not given in full) in the assay.
0.0

###

Here, each record is paired with measured growth data.
- Tested on: NCI-H322M lung
- measurement notes: NCI-60 one-dose screen, 48 h (100 = growth as untreated, 0 = no growth, -100 = all killed)
- measurement context: 10 µM unless noted
Compounds without any hit were thinned out: in the full panel of roughly 83,000, 20% have a hit.
Kindly answer with a numeric value in %, unit omitted.

1) Cn1nnnc1-c1ccc(N)cc1    92.7
2) CSc1ncc(C)c(Nc2ccc(Cl)cc2)n1    106
3) Clc1ccc(-c2nc(NCCc3ccccc3)nc3c(NCCc4ccccc4)cnn23)cc1    73.7

Give growth for the following compound: O=C(c1ccccc1)c1ccc(Cl)c([N+](=O)[O-])c1
90.6

Give growth for the following compound: COc1ccc(N(C)c2nc(Cl)nc3cnn(C)c23)cc1
34.1

Give growth for the following compound: CC(/C=N/NC(=O)c1cc(-c2ccco2)[nH]n1)=C\c1ccccc1
93.3

Give growth for the following compound: COc1ccc(-c2c(N)n[nH]c2-c2ccccc2O)cc1OC
102

Give growth for the following compound: C=CCOc1cccc(/C=C2\SC(=Nc3ccc(O)cc3)NC2=O)c1
53.5

Give growth for the following compound: CCO/C=N/C1=C(C#N)C(c2ccc(OC)cc2)c2c(c3ccccc3n(C)c2=O)O1 (stereo unspecified)
101

Give growth for the following compound: O=c1[nH]c(=O)n(C2CC(O)C(CO)O2)cc1CO (stereo unspecified)
102

Give growth for the following compound: COc1cc2cc(Oc3ccc(NC(=O)Nc4cc(C(F)(F)F)cc(C(F)(F)F)c4)cc3)c(C)nc2cc1OCCN1CCCCC1
-87.1

###

- Test system: NCI-H322M lung
- measurement notes: NCI-60 one-dose screen, 48 h (100 = growth as untreated, 0 = no growth, -100 = all killed)
- measurement context: 10 µM unless noted
The panel holds about 83,000 compounds, 20% with a hit somewhere; the sample as a whole holds those more often. Active and inactive are the calls of the source. The calls were made as follows: active = growth percent below 10; inactive = the rest.
Here, each record is paired with measured growth data.

1. CN(C)S(=O)(=O)n1cnc([C@@H]2[C@@H]3C(=O)OC[C@@H]3C[C@]23N=CN(Cc2ccccc2)C3=O)c1    110% (inactive)

Give growth for the following molecule: Cc1nc(Nc2ccc(N)cc2)c2ccccc2n1
117% (inactive)

Give growth for the following molecule: CN(C)c1ccc(/C=C/c2c(F)cccc2F)cc1
92.7% (inactive)

Give growth for the following molecule: O=C1NC(=S)S/C1=C\N1N=C(c2ccc(Cl)cc2)CC1c1ccc(F)cc1 (stereo unspecified)
99.1% (inactive)

Give growth for the following molecule: Cl.Fc1c[c-]c(-c2ccccn2)c(F)c1.[Pt].c1ccc(P(c2ccccc2)C([PH+](c2ccccc2)c2ccccc2)[PH+](c2ccccc2)c2ccccc2)cc1
20.8% (inactive)

Give growth for the following molecule: CCC(C)NCc1ccccc1 (stereo unspecified)
98.1% (inactive)

Give growth for the following molecule: CC12CC(C#N)CCC1O2 (stereo unspecified)
127% (inactive)

Give growth for the following molecule: CCOC(=O)c1c(C)[nH]c(C(=O)CCC(=O)OC)c1C
98.5% (inactive)

Give growth for the following molecule: N#Cc1cccc(-c2nc3ccccn3c2NCCN2CCOCC2)c1
87.1% (inactive)

Give growth for the following molecule: Cc1cc(Cl)nc(N(CCCNc2ccnc3cc(Cl)ccc23)Cc2ccccn2)n1
68.7% (inactive)

Give growth for the following molecule: Cc1cc(-c2ccc(N(C)C)cc2)c2sc(=O)[nH]c2n1
78.1% (inactive)

Give growth for the following molecule: COc1ccc(/C(C)=C(\c2ccc(Cl)cc2)c2ccc(OCCN3CCCC3)cc2)cc1F
62.2% (inactive)

Give growth for the following molecule: Clc1ccc(-c2cn(-c3ccccc3)c(-c3ccccc3)n2)cc1
95.9% (inactive)

Give growth for the following molecule: OC(CBr)c1ccnc2ccccc12 (stereo unspecified)
102% (inactive)

Give growth for the following molecule: O=C1CSC(c2ccccc2O)N1c1nnc(Cn2cnnc2)o1 (stereo unspecified)
87.3% (inactive)

Give growth for the following molecule: Clc1ccc(-c2nnc(-c3ccco3)o2)cc1
93.6% (inactive)

Give growth for the following molecule: C=CC(=O)N[C@@H](Cc1ccc(-c2cc(Cl)cc(Cl)c2)cc1)[C@@H](O)[C@H](O)C(=O)O
105% (inactive)

Give growth for the following molecule: COc1ccc(OC)c(/C=C2\COc3ccc(O)c(O)c3C2=O)c1
54.3% (inactive)

Source listed as PubChem BioAssay (NCI).
